Reference for the values: PubChem BioAssay (NCI)

System: LOX IMVI melanoma
Assay: NCI-60 one-dose screen, 48 h (100 = growth as untreated, 0 = no growth, -100 = all killed)
Settings: 10 µM unless noted
This is part of a sample that, as a whole, favours compounds with a hit. Of some 83,000 tested, about 20% had one in any assay.
Property: growth (%)
Use % as the unit, but write only the number.

Prompt: growth for `CCc1ccc(NC(=O)N[C@@H](Cc2cccc(F)c2)C(=O)N[C@@H]2C(=O)N3CCC[C@H]3C(=O)N3CCCC[C@H]3C(=O)N[C@@H](CO)C(=O)N3C[C@H](C)C[C@H]3C(=O)O[C@H]2C)c(F)c1` ?
Response: 24.9

Prompt: growth for C#CCOc1ccc(C(Nc2ccc(OC)cc2)c2nnnn2C2CCCCC2)cc1 (configuration not stated) ?
Response: 89.2

Prompt: growth for `CC(=O)Nc1nc2c(s1)C1=CC[C@H]3[C@@H]4CC[C@H](C(C)=O)[C@@]4(C)CC[C@@H]3[C@@]1(C)CC2` ?
Response: 59.6

Prompt: growth for `CCCCCCNC(=O)Oc1ccc(/C(=C(\C)c2ccc(OC)cc2)c2ccc(OCCN(C)C)cc2)cc1` ?
Response: -48.5

Prompt: growth for `CCOC(=O)c1c(NCC(=O)Nc2ccc(Br)cc2)sc2c1CCCC2` ?
Response: 4.11

Prompt: growth for `CCNC(=O)Oc1ccc(/C(=C(/C)c2ccccc2)c2ccc(OCCN3CCCC3)cc2)cc1` ?
Response: 18.4

Prompt: growth for `CCOC(=O)c1c(NC(=O)c2ccc(C(C)(C)C)cc2)sc2cc(OCCN3CCCCC3)ccc12` ?
Response: -74.4

Prompt: growth for `C#C[C@]1(O)CC[C@H]2[C@@H]3CC=C4c5sc(-c6ccccn6)nc5CC[C@]4(C)[C@H]3CC[C@@]21C` ?
Response: 62.9

Prompt: growth for `O=S(=O)(Nc1ccc(-c2nc(-c3cccc(O)c3)c(-c3ccnc(Br)c3)[nH]2)cc1)c1ccccc1` ?
Response: -25

Prompt: growth for `CCn1c2ccc(/C=N/OCCCN(C)C)cc2c2cc(/C=N/OCCCN(C)C)ccc21` ?
Response: -91.8

Prompt: growth for `COc1ccc(N)cc1C(=O)Nc1cccc(-c2cc(=O)c3c(OC)c(OC)c(OC)cc3o2)c1` ?
Response: 44.3

Prompt: growth for `C(=C(\C1=NCCN1)n1cnc2ccccc21)/c1ccc2ccccc2c1` ?
Response: 71.5

Prompt: growth for `C(=C(\C1=NCCN1)n1cnc2ccccc21)/c1cccc2ccccc12` ?
Response: 83.8

Prompt: growth for `O=C(Nc1cccc(-c2nc(-c3ccc(NC(=O)c4cccs4)cc3Cl)no2)c1)Nc1ccc(NC(=O)C2CC2)c(C(F)(F)F)c1` ?
Response: -87.1

Prompt: growth for `Cc1cn(-c2cc(NC(=O)c3cncc(C#Cc4cnc5ccc(O[C@H]6CCOC6)nn45)c3)cc(C(F)(F)F)c2)cn1` ?
Response: 62.6

Prompt: growth for `COc1ccc(CCN2C(=O)/C(=C/c3nc(CO)cs3)SC2=S)cc1` ?
Response: 30.8

Prompt: growth for `Oc1ccccc1-c1nnc(SCc2ccc(O)c3ncccc23)n1-c1ccccc1` ?
Response: 3.79

###

Tested on: HCT-116 colon
Assay: NCI-60 one-dose screen, 48 h (100 = growth as untreated, 0 = no growth, -100 = all killed)
Conditions: 10 µM unless noted
This is part of a sample that, as a whole, favours compounds with a hit. Of some 83,000 tested, about 20% had one in any assay.
Assign growth to each entry below.
Use % as the unit, but write only the number.

Prompt: growth for `COc1ccc(CCN2C(=O)CSC2=S)cc1OC` ?
Response: 99.6

Prompt: growth for `N#Cc1c(NC(=O)c2ccc(F)c(Cl)c2)sc2c1CCC(=O)C2` ?
Response: 0.878

Prompt: growth for `C=CCn1c(SCC(=O)Nc2cccc(C(=O)/C=C/c3cc(OC)c(OC)c(OC)c3)c2)nc2ccccc2c1=O` ?
Response: -26.4

Prompt: growth for `COc1ccc(/C=C/C(=O)c2nnn(-c3ccc(Br)cc3)c2C)cc1OC` ?
Response: 5.41

Prompt: growth for Cc1ccc(C2CC(c3ccc(Nc4nc(NCCO)nc(Nc5ccc(Cl)cc5)n4)cc3)=Nc3c(N)nc(N)nc3N2)cc1 (centres undefined) ?
Response: -97

Prompt: growth for O=C(COc1ccc(C2SCC(=O)N2c2ccc(F)cc2)cc1)c1ccccc1 (centres undefined) ?
Response: 94.3

Prompt: growth for `COc1ccc(S(=O)(=O)NCCCNc2nccc(-n3cnc4ccccc43)n2)cc1` ?
Response: 89.9

Prompt: growth for `Cc1cn(-c2cc(NC(=O)c3cncc(C#Cc4cnc5ccc(O[C@H]6CCOC6)nn45)c3)cc(C(F)(F)F)c2)cn1` ?
Response: 44.2

Prompt: growth for `Cc1ccc(-c2csc(N/N=C/c3nc4ccccc4n3C3CC3)n2)cc1` ?
Response: 89.3

###

Test system: SK-OV-3 ovarian
Assay: NCI-60 one-dose screen, 48 h (100 = growth as untreated, 0 = no growth, -100 = all killed)
Conditions: 10 µM unless noted
This is part of a sample that, as a whole, favours compounds with a hit. Of some 83,000 tested, about 20% had one in any assay. Calls of active or inactive are those of the source. How the source made its calls: active means growth percent below 10; inactive means the rest.
Assign growth to each entry below.

Prompt: growth for `CN(C)C(=O)c1ccccc1-n1cnc2ccccc2c1=O` ?
Response: 107% (inactive)

Prompt: growth for `CN(C)c1ccc(/C=N/Nc2nc(N/N=C/c3ccc(N(C)C)cc3)nc(N3CCOCC3)n2)cc1` ?
Response: 110% (inactive)

Prompt: growth for `CCN(CC)CCN1C(=O)c2c(c3c4cc(Br)ccc4[nH]c3c3ccc4ccccc4c23)C1=O` ?
Response: 61.9% (inactive)

Prompt: growth for `C#C[C@]1(O)CC[C@H]2[C@@H]3CC=C4c5sc(Nc6ccncc6)nc5CC[C@]4(C)[C@H]3CC[C@@]21C` ?
Response: -38.1% (active)

Prompt: growth for `Oc1ccc(CSc2nnc(-c3ccc(Oc4ccccc4)cc3)n2-c2ccccc2)c2cccnc12` ?
Response: 14.1% (inactive)

###

Tested on: CCRF-CEM leukemia
Assay: NCI-60 one-dose screen, 48 h
Details: 10 µM unless noted
This is part of a sample that, as a whole, favours compounds with a hit. Of some 83,000 tested, about 20% had one in any assay. Active and inactive are the calls of the source. Rule for the calls: active = growth percent below 10; inactive = the rest.
In this exercise, the only acceptable responses are active, inactive

Prompt: What classification did `O=C1[C@@H]2Cc3c([nH]c4ccccc34)[C@H](c3c(Cl)cccc3Cl)N2C(=O)CN1C1CCN(Cc2c(F)cccc2F)CC1` end up with in this test?
Response: inactive

Prompt: What classification did CCN(CC)CCCC(C)NCC(=O)NC(c1ccc2c(c1)OCO2)c1cc(Cl)c2cccnc2c1O (centres undefined) end up with in this test?
Response: inactive

Prompt: What classification did `O=C1[C@H]2Cc3c([nH]c4ccccc34)[C@@H](c3ccc(Cl)cc3)N2C(=O)CN1C1CCN(Cc2c(Cl)cccc2Cl)CC1` end up with in this test?
Response: inactive

Prompt: What classification did `Clc1ccc(-c2nc3ccc(/C(=N\N=C\c4ccccc4)c4ccccc4)cc3[nH]2)cc1` end up with in this test?
Response: inactive

Prompt: What classification did `Oc1ccccc1/C=N/Nc1nc(N/N=C/c2ccccc2O)nc(N2CCOCC2)n1` end up with in this test?
Response: inactive

Prompt: What classification did `NC(=O)c1c(NC(=O)c2cccc(C(F)(F)F)c2F)sc2c1CCC(=O)C2` end up with in this test?
Response: inactive

Prompt: What classification did `COc1ccc(N2CCN(C(=O)CSc3ccc(-c4nc5cc(C)c(C)cc5[nH]4)cn3)CC2)cc1` end up with in this test?
Response: inactive

Prompt: What classification did `COc1cc(NC2=C(Cl)C(=O)c3nc(C)ccc3C2=O)cc(OC)c1` end up with in this test?
Response: active

Prompt: What classification did `N#Cc1c(NC(=O)c2ccc(F)c(Cl)c2)sc2c1CCC(=O)C2` end up with in this test?
Response: active

###

Test system: SW-620 colon
Test: NCI-60 one-dose screen, 48 h (100 = growth as untreated, 0 = no growth, -100 = all killed)
Conditions: 10 µM unless noted
The panel holds about 83,000 compounds, 20% with a hit somewhere; the sample as a whole holds those more often.
Property: growth (%)
Use % as the unit, but write only the number.

Prompt: What reported growth corresponds to `N#C/C(=C\c1ccc(Cl)cc1Cl)C(N)=O` on SW-620 colon?
Response: 88.3

Prompt: What reported growth corresponds to `N#C/C(=C\c1ccc(N2CCCCC2)cc1)C(=O)Nc1sc2c(c1C#N)CCC2` on SW-620 colon?
Response: 100

Prompt: What reported growth corresponds to `COc1ccc(-c2nc3cc(Cl)c(Cl)cc3n2CC(=O)N=Nc2c(O)[nH]c3ccccc23)cc1` on SW-620 colon?
Response: 62.4

Prompt: What reported growth corresponds to `O=C(CCCCCCN1CC(=O)N2[C@@H](c3ccc(Cl)c(F)c3)c3[nH]c4ccccc4c3C[C@H]2C1=O)NO` on SW-620 colon?
Response: 74.7

Prompt: What reported growth corresponds to `Cc1occc1-c1nc2s/c(=C\c3cn(-c4ccccc4)nc3-c3ccccc3)c(=O)n2n1` on SW-620 colon?
Response: 97.5

Prompt: What reported growth corresponds to `O=C1c2c(c3c4cccnc4[nH]c3c3ccc4ccccc4c23)C(=O)N1CCN1CCCCC1` on SW-620 colon?
Response: 41.3

Prompt: What reported growth corresponds to `COc1c([C@@H](CC(C)C)OC(C)=O)ccc2c1C(=O)OCc1cc(C)cc(O)c1O2` on SW-620 colon?
Response: 20

Prompt: What reported growth corresponds to `CS(=O)(=O)c1nccc(-c2c(-c3ccc(F)c(OCc4ccccc4)c3)nc3sccn23)n1` on SW-620 colon?
Response: 100

Prompt: What reported growth corresponds to CC(=O)c1ccc(NC(=O)COc2ccc(C3SCC(=O)N3c3ccc(Br)cc3)cc2)cc1 (stereo not given) on SW-620 colon?
Response: 110

Prompt: What reported growth corresponds to `COc1ccc(N)cc1C(=O)Nc1cccc(-c2cc(=O)c3c(OC)c(OC)c(OC)cc3o2)c1` on SW-620 colon?
Response: 91.4

Prompt: What reported growth corresponds to COc1ccc(Oc2ccc(C3CC(c4cc(OC)c(OC)c(OC)c4)=NN3C(C)=O)cc2)cc1 (stereo not given) on SW-620 colon?
Response: 46.9

Prompt: What reported growth corresponds to CCOC(=O)C1=C(C)Nc2nnc(Nc3ccccc3)n2C1c1ccccc1 (stereo not given) on SW-620 colon?
Response: 35.2

Prompt: What reported growth corresponds to `CN1C(=O)/C(=C/C=C/c2ccco2)SC1=S` on SW-620 colon?
Response: 104

Prompt: What reported growth corresponds to `O=C(CN1C(=O)S/C(=C\c2ccccc2)C1=O)Nc1ccc(C(=O)/C=C/c2cc3ccccc3nc2Cl)cc1` on SW-620 colon?
Response: 98

Prompt: What reported growth corresponds to `NC(=O)c1c(NC(=O)c2cccc(C(F)(F)F)c2F)sc2c1CCC(=O)C2` on SW-620 colon?
Response: 2.94

Prompt: What reported growth corresponds to `COc1ccc(/C=N\NC(=O)c2ccc3nc(-c4ccc(Br)cc4)[nH]c3c2)cc1` on SW-620 colon?
Response: 23.5

Prompt: What reported growth corresponds to `CC1=CC(=O)CC(C)(C)[C@@]1(O)/C=C/C(C)=C\C(=O)O` on SW-620 colon?
Response: 0.826

Prompt: What reported growth corresponds to `COc1ccc(-c2cc(-c3cccc4ccccc34)n3c(n2)nc2ccccc23)cc1OC` on SW-620 colon?
Response: 29.8

Prompt: What reported growth corresponds to `CC(=O)Nc1ccc(C)c(Nc2cc(-c3ccc(-n4cccn4)cc3)[nH]n2)c1` on SW-620 colon?
Response: 31.5

Prompt: What reported growth corresponds to `CNC(=O)c1cc(N2CCc3cc(NC(=O)Nc4ccc(Cl)c(Cl)c4)ccc32)ccn1` on SW-620 colon?
Response: 114
